The reader will find Ki measurements below, all made with MCH receptor (Homo sapiens, UniProt Q99705).
Sequence (Q99705 whole entry): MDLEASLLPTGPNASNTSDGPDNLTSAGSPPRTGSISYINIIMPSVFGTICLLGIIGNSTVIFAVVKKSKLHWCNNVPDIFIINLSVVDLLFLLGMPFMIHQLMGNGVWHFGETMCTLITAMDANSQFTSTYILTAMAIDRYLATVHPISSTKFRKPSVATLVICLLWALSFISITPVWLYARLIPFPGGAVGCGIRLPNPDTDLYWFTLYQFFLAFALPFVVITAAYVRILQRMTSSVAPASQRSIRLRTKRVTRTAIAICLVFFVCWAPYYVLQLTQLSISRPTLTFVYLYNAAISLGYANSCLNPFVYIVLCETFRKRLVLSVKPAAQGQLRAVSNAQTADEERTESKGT
property: Ki

INSERT INTO measurements (molecule, property, result) VALUES
  ('CS(=O)(=O)N1CCC(CN(c2nc3cc(F)c(F)cc3[nH]2)[C@@H]2CC[C@]3(c4cccc(C#N)c4)C[C@@H]3C2)CC1 [Example 16b]', 'Ki', '10 to 30 nM'),
  ('CN1CCN(CCCN(c2nc3cc(Cl)c(Cl)cc3[nH]2)[C@@H]2CC[C@]3(c4ccc(C#N)cc4)C[C@H]23)CC1 [Example 35b]', 'Ki', '10 to 30 nM'),
  ('CN1CCN(CCCN(c2nc3cc(Cl)c(Cl)cc3[nH]2)[C@@H]2CC[C@]3(c4cccc(C#N)c4)C[C@H]23)CC1 [Example 30a]', 'Ki', '< 10 nM');

====

targetOrSystem: MCH receptor (Homo sapiens)
Construct: expressed in transfected cells; host or cells: CHO cells
assayRemarks: MCH Receptor Binding Assay
conditionLabel: membranes from CHO cells expressing the MCH receptor, [125I]-MCH, SPA; read-out: Activity Class (Ki)
pKi: −log10 of the molar value.
property: pKi

INSERT INTO measurements (molecule, targetorsystem, result) VALUES
  ('CN1CCN(CCCN(c2nc3cc(F)c(Cl)cc3[nH]2)[C@@H]2CC[C@]3(c4cccc(Br)c4)CC23)CC1 (stereo partly drawn) [Example 30d]', 'MCH receptor (Homo sapiens)', '7.52 to 8.00'),
  ('CN(C)Cc1cccc([C@]23CC[C@@H](N(CCCN4CCN(C)CC4)c4nc5cc(F)c(F)cc5[nH]4)C[C@H]2C3)c1 [Example 10d]', 'MCH receptor (Homo sapiens)', '< 7.00'),
  ('CN1CCN(CCCN(c2nc3cc(Cl)c(F)cc3[nH]2)[C@@H]2CC[C@]3(c4ccc(C#N)cc4)C[C@H]23)CC1 [Example 35c]', 'MCH receptor (Homo sapiens)', '> 8.00'),
  ('CS(=O)(=O)N1CCC(CN(c2nc3cc(Cl)c(Cl)cc3[nH]2)[C@@H]2CC[C@]3(c4cccc(C#N)c4)C[C@@H]3C2)CC1 [Example 16a]', 'MCH receptor (Homo sapiens)', '> 8.00'),
  ('CN1CCN(CCCN(c2nc3cc(F)c(C(F)(F)F)cc3[nH]2)[C@@H]2CC[C@]3(c4ccc(C#N)cc4)CC23)CC1 (stereo partly drawn) [Example 35a]', 'MCH receptor (Homo sapiens)', '> 8.00'),
  ('CN1CCN(CCCN(c2nc3cc(Cl)c(Cl)cc3[nH]2)[C@@H]2CC[C@]3(c4cccc(CN5CCOCC5)c4)C[C@@H]3C2)CC1 [Example 10b]', 'MCH receptor (Homo sapiens)', '7.52 to 8.00'),
  ('CC(C)(C)OC(=O)N1CCC(CN(c2nc3cc(Cl)c(Cl)cc3[nH]2)[C@@H]2CC[C@]3(c4cccc(C#N)c4)CC3C2)CC1 (stereo partly drawn)', 'MCH receptor (Homo sapiens)', '< 7.00'),
  ('CN1CCN(CCCN(c2nc3cc(F)c(F)cc3[nH]2)[C@@H]2CC[C@]3(c4cccc(C#N)c4)C[C@H]23)CC1 [Example 30c]', 'MCH receptor (Homo sapiens)', '7.52 to 8.00'),
  ('CN1CCN(CCCN(c2nc3cc(F)c(F)cc3[nH]2)[C@@H]2CC[C@]3(c4cccc(CN5CC[C@@H](O)C5)c4)CC3C2)CC1 (stereo partly drawn) [Example 10f]', 'MCH receptor (Homo sapiens)', '< 7.00'),
  ('CN1CCN(CCCN(c2nc3cc(F)c(F)cc3[nH]2)[C@@H]2CC[C@]3(c4cccc(CN5CCCC5)c4)C[C@@H]3C2)CC1 [Example 10c]', 'MCH receptor (Homo sapiens)', '7.52 to 8.00'),
  ('CN1CCN(CCCN(c2nc3cc(Cl)c(F)cc3[nH]2)[C@@H]2CC[C@]3(c4cccc(C#N)c4)C[C@H]23)CC1 [Example 30b]', 'MCH receptor (Homo sapiens)', '> 8.00'),
  ('CN(C)Cc1cccc([C@]23CC[C@@H](N(CCCN4CCN(C)CC4)c4nc5cc(Cl)c(Cl)cc5[nH]4)C[C@H]2C3)c1 [Example 10a]', 'MCH receptor (Homo sapiens)', '> 8.00'),
  ('CS(=O)(=O)N1CCC(CN(c2nc3cc(F)c(Cl)cc3[nH]2)[C@@H]2CC[C@]3(c4cccc(C#N)c4)C[C@@H]3C2)CC1 [Example 16c]', 'MCH receptor (Homo sapiens)', '> 8.00'),
  ('CN1CCN(CCCN(c2nc3cc(Cl)c(Cl)cc3[nH]2)[C@@H]2CC[C@]3(c4cccc(C=O)c4)C[C@@H]3C2)CC1', 'MCH receptor (Homo sapiens)', '7.52 to 8.00'),
  ('CN1CCN(CCCN(c2nc3cc(F)c(F)cc3[nH]2)[C@@H]2CC[C@]3(c4cccc(CN5CCOCC5)c4)C[C@@H]3C2)CC1 [Example 10e]', 'MCH receptor (Homo sapiens)', '7.52 to 8.00');
